src = patent US20230192831A1

I'd appreciate it if you could supply Binding Signal with 300 sec Association (nm) values for the items below.
molecular target: recombinant human GREM1 (hGREM1-His; C-terminal 10His tagged, R&D, #5190-GR) (human) (UniProt O60565); assay: BLI Octet, captured mAb, 100 nM GREM1
Sequence (O60565 other isoform, or with tags, fused parts or gaps limits assumed, form in doubt): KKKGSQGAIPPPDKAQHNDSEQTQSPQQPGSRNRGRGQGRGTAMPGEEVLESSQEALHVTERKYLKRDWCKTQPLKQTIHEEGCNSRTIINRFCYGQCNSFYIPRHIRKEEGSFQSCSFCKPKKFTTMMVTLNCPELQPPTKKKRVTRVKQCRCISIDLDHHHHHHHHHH
Only the number, expressed in nm, is required.

Which Binding Signal with 300 sec Association (nm) value is on record for H4H6248P (antibody, human IgG4, V domains shown) VH: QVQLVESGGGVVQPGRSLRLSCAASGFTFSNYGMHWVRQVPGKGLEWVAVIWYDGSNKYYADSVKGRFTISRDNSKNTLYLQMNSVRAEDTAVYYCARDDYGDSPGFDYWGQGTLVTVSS VL: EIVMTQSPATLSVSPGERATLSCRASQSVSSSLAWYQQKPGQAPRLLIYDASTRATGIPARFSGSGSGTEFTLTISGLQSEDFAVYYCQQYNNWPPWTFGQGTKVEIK ?
0.42

One more binder: H4H6260P (antibody, human IgG4, V domains shown) VH: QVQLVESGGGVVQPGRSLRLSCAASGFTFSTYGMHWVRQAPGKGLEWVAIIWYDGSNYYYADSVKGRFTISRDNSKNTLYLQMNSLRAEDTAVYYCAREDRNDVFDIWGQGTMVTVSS VL: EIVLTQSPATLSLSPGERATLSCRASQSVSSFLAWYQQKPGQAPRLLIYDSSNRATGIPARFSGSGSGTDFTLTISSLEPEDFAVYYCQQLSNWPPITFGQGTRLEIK
0.42

One more binder: H4H2895N (antibody, human IgG4, V domains shown) VH: EVQLVESGGGLVQPGGSLRLSCAASGFTVSSNYMSWVRQAPGKGLEWVSVIYSGGNTYYADSVKGRFTISRHNSKNTLYLQMNSLRAEDTAVYYCARDLGIKSDYWGQGTLVTVSS VL: EIVLTQSPDFQSVTPKEKVTITCRASQSIGTTLHWYQQKPDQSPKLLIKYVSQSLSGVPSRFSGSGSGTDFTLTINSLEAEDAATYYCHQSSSLPWTFGQGTKVEIK
0.5

One more binder: H4H6250P (antibody, human IgG4, V domains shown) VH: QVQLVESGGGVVQPGRSLRLSCAASGFTFSNYGMHWVRQAPGKGLEWVAVIWYDGSNKYYADSVKGRFTISRDNSRKTLYLQMNSLRAEDTAIYYCTRDDYGDYDYPFDYWGQGTLVTVSS VL: DIQMTQSPSSLSASVGDRVTITCRASQGIRNDLGWYQQKPGKAPKRLIYAASSLQSGVPSRFSGTGSGTEFTLTISSLQPEDFATYYCLQHNSYPPFTFGPGTKVDIK
0.37

One more binder: H4H6245P (antibody, human IgG4, V domains shown) VH: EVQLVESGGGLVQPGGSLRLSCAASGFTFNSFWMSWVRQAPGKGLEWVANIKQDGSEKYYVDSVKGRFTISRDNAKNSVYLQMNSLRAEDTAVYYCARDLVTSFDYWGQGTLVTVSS VL: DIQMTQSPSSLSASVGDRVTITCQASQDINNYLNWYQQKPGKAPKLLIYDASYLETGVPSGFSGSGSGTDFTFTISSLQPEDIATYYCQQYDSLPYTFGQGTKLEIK
0.41
